// merged dataset of pKi values, system = Metabotropic glutamate receptor 2 (Homo sapiens, UniProt Q14416), multiple refs
Sequence (Q14416 whole entry): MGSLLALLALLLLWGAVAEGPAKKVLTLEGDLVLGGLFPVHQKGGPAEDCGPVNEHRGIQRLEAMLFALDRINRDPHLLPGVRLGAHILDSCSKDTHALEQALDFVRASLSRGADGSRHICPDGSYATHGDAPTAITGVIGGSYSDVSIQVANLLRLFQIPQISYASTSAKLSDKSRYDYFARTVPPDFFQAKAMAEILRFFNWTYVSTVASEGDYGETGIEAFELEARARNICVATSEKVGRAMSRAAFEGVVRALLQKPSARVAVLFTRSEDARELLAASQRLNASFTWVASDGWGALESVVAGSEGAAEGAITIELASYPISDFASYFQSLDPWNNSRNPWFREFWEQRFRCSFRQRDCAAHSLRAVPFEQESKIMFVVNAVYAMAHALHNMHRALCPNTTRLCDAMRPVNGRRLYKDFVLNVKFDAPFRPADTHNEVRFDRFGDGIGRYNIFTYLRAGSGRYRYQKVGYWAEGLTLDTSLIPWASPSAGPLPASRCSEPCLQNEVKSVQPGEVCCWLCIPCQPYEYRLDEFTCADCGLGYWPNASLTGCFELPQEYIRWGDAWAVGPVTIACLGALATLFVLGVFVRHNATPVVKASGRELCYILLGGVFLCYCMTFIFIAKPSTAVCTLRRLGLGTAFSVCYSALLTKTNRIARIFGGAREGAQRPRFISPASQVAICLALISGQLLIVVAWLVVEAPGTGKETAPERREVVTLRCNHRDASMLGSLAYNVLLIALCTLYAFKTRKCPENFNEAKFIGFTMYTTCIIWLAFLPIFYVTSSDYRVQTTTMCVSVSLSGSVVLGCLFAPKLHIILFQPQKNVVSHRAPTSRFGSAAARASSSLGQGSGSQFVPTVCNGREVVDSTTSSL
pKi: −log10 of the molar value.

Examples from the recorded data:
>>> observed("N[C@H](CC12CC(C(=O)O)(C1)C2)C(=O)O")
"< 3.00"
>>> observed("N#Cc1cc(F)cc(C#Cc2csc(F)n2)c1")
"< 5.00"

Input line: May I ask what pKi has been recorded for N#Cc1cc(F)cc(C#Cc2csc(CF)n2)c1 ?
Output line: < 5.00

Input line: And N[C@@H](CC12CC(C(=O)O)(C1)C2)C(=O)O ?
Output line: < 3.00

Input line: And N[C@H](C(=O)O)c1cc(O)cc(O)c1 ?
Output line: < 3.00
